Attribute: OD450
# Assay target: T1, human MSLN-R1-his protein (human, UniProt Q13421 296-390)
# T1 construct: Made in HEK293E cells, purified on nickel column; also called hMSLN-R1-his; human MSLN-R1 protein; not shown: His tag
# T1 chain: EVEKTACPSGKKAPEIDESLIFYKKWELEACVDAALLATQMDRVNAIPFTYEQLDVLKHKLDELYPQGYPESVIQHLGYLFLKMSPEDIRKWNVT
# Protocol details: ELISA, coated antigen, antibody 0.02 nM
Parameter measured: OD450

[[record]]
binder = "S009-F7.2.3 chimeric antibody (antibody, human IgG1, kappa, V domains shown, Human-murine chimeric antibody, human IgG1/kappa constant regions) VH: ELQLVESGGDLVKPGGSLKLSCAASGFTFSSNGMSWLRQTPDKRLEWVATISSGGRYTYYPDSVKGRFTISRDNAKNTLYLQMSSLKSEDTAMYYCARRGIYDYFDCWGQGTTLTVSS VL: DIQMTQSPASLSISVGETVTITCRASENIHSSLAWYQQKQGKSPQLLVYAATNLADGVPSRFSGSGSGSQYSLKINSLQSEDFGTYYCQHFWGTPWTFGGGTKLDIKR"
parameter_measured = "OD450"
result = 0.06

[[record]]
binder = "S009-F7.21.16 chimeric antibody (antibody, human IgG1, kappa, V domains shown, Human-murine chimeric antibody, human IgG1/kappa constant regions) VH: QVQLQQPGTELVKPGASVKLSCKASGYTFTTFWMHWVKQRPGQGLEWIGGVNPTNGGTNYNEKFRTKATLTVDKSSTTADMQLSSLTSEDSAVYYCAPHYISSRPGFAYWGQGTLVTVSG VL: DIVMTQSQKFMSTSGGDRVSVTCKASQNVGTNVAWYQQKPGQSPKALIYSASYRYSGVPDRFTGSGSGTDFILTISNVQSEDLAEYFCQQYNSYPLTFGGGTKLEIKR"
parameter_measured = "OD450"
result = 0.05

[[record]]
binder = "S009-F7.65.13 chimeric antibody (antibody, human IgG1, kappa, V domains shown, Human-murine chimeric antibody, human IgG1/kappa constant regions) VH: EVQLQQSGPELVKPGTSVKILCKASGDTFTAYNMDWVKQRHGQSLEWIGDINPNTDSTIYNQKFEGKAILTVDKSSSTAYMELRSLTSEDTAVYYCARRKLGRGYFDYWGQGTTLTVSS VL: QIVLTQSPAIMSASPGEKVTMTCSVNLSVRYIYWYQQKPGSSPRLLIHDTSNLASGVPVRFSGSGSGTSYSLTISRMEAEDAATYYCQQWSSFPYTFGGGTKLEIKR"
parameter_measured = "OD450"
result = 0.05

[[record]]
binder = "S009-F7.44.20 chimeric antibody (antibody, human IgG1, kappa, V domains shown, Human-murine chimeric antibody, human IgG1/kappa constant regions) VH: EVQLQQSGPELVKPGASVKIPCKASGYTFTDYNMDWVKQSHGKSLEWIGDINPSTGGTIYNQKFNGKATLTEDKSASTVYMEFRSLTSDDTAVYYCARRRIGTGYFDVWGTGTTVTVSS VL: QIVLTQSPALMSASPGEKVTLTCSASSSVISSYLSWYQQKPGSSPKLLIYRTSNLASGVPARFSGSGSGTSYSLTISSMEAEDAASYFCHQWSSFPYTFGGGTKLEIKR"
parameter_measured = "OD450"
result = 0.04

[[record]]
binder = "S009-F7.69.8 chimeric antibody (antibody, human IgG1, kappa, V domains shown, Human-murine chimeric antibody, human IgG1/kappa constant regions) VH: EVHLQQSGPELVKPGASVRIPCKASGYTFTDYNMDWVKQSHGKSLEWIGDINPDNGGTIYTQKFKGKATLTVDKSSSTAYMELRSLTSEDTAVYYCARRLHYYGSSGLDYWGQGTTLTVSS VL: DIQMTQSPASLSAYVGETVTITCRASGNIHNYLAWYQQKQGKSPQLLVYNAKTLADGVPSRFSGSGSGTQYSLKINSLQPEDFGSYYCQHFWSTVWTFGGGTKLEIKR"
parameter_measured = "OD450"
result = 0.04

